Assay: physchem
Conditions: octan-1-ol/water, pH 7.4, LogD7.4
Please use 1 whenever logD is not below 1, and -1 whenever it is.

>>> classification("Cc1nnc(NS(=O)(=O)c2ccc(N)cc2)s1 [SULFAMETHIZOLE]")
-1
>>> classification("c1ccc2cnccc2c1 [ISOQUINOLINE]")
1
>>> classification("Cc1cccc2c(CCNCc3cccc(CCNC[C@H](O)c4ccc(O)c5[nH]c(=O)sc45)c3)c[nH]c12")
1

## Input Record Nc1ccccc1NC(=O)c1ccc(CNC(=O)OCc2cccnc2)cc1 [ENTINOSTAT] ; criterion: logD no lower than 1. Met?
## Output 1

## Input Record COc1ccccc1OCC(O)CO (stereo unspecified) [GUAIFENESIN] ; criterion: logD no lower than 1. Met?
## Output -1

## Input Record CC(C)[N+](C)(CCOC(=O)C1c2ccccc2Oc2ccccc21)C(C)C [PROPANTHELINE] ; criterion: logD no lower than 1. Met?
## Output -1

## Input Record `O=C(c1c[nH]c(=O)c2ccccc12)N1CCC(N2CCC(Oc3ccc(Cl)c(Cl)c3)CC2)CC1` ; criterion: logD no lower than 1. Met?
## Output 1

## Input Record `COCCCc1cc(Nc2nc(NCc3cc(C)no3)ncc2Br)[nH]n1` ; criterion: logD no lower than 1. Met?
## Output 1

## Input Record `CNCC[C@@H](Oc1cc(OC)ccc1C#N)c1ccccc1` ; criterion: logD no lower than 1. Met?
## Output -1
